The measured values listed here are drawn from patent US20250326839A1.

- target.of.assay: T1, human TREM2 (human, UniProt Q9NZC2 19-174, limits assumed)
- T1 construct: also called triggering receptor expressed on myeloid cells 2
- T1 sequence: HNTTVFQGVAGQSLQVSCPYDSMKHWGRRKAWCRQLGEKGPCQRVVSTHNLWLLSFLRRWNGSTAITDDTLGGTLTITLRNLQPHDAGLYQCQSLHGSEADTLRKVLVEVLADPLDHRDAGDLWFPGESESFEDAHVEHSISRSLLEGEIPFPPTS
- assay.info: 2nd screen, 100 nM
assay.metric: Binding Signal

input: Recorded Binding Signal for V23 (antibody, V domains shown, also called 6E7 variant V23; LV-202/HV-15) VH: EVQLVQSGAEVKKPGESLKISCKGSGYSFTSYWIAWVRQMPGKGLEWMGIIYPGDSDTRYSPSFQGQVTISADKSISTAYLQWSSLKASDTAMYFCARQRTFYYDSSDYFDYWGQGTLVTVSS VL: DIQMTQSPSSVSASVGDRVTITCRASQGISSWLAWYQQKPGKAPKLLIYAASSLQNGVPSRFSGSGSGTDFTLTISSLQPEDFATYFCQQADSFPLTFGQGTKLEIK , please?
output: 0.4 fold over 6E7 parental antibody

input: Recorded Binding Signal for V19 (antibody, V domains shown, also called 6E7 variant V19) VH: EVQLVQSGAEVKKPGESLKISCKGSGYSFTSSWIAWVRQMPGKGLEWMGIIYPGDSDTRYSPSFQGQVTISADKSISTAYLQWSSLKASDTAMYFCARQRTFYYDSSDYFDYWGQGTLVTVSS VL: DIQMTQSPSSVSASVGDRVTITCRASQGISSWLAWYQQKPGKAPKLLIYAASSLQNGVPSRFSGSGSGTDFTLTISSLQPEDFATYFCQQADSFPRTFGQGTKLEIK , please?
output: 0.48 fold over 6E7 parental antibody

input: Recorded Binding Signal for V10 (antibody, V domains shown, also called 6E7 variant V10; LV-201/HV-15) VH: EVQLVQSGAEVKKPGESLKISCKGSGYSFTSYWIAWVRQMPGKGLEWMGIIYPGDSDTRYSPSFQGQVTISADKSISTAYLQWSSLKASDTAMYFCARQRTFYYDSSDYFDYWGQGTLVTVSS VL: DIQMTQSPSSVSASVGDRVTITCRASQGISSWLAWYQQKPGKAPKLLIYSASSLQNGVPSRFSGSGSGTDFTLTISSLQPEDFATYFCQQADSFPRTFGQGTKLEIK , please?
output: 0.7 fold over 6E7 parental antibody

input: Recorded Binding Signal for V8 (antibody, V domains shown, also called 6E7 variant V8) VH: EVQLVQSGAEVKKPGESLKISCKGSGYSFTSYWIAWVRQMPGKGLEWMGIIYPGDSDTKYSPSFQGQVTISADKSISTAYLQWSSLKASDTAMYFCARQRTFYYDSSDYFDYWGQGTLVTVSS VL: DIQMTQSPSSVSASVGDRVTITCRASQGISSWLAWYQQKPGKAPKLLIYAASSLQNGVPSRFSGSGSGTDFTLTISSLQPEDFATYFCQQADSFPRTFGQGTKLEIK , please?
output: 0.77 fold over 6E7 parental antibody

input: Recorded Binding Signal for V31 (antibody, V domains shown, also called 6E7 variant V31) VH: EVQLVQSGAEVKKPGESLKISCKGSGYSFTSYWIAWVRQMPGKGLEWMGIIYPGDSETRYSPSFQGQVTISADKSISTAYLQWSSLKASDTAMYFCARQRTFYYDSSDYFDYWGQGTLVTVSS VL: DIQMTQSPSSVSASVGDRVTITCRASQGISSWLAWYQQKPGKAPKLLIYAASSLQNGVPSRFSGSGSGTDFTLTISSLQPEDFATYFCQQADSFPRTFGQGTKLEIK , please?
output: 0.73 fold over 6E7 parental antibody
